These data points were gathered from patent US20250197467A1.

# study-system: T1, IL-18 receptor (IL-18Rαβ) on cells (UniProt Q13478 19-541; O95256 20-599, limits assumed)
# T1 sequence (looked up) 1: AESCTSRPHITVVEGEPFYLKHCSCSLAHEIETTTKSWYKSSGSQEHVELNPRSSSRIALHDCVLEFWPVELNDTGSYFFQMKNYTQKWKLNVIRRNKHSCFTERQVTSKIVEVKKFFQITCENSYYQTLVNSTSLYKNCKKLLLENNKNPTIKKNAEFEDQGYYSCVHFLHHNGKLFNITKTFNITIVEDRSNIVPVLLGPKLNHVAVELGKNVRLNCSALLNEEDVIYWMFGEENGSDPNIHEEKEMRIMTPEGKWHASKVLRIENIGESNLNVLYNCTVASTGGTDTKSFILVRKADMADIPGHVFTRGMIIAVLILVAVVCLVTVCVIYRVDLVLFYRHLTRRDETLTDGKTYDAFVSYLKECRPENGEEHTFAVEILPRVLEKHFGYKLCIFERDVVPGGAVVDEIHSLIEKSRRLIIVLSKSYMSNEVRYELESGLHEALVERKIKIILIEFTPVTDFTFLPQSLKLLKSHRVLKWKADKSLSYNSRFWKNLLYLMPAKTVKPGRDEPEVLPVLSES
# T1 sequence (looked up) 2: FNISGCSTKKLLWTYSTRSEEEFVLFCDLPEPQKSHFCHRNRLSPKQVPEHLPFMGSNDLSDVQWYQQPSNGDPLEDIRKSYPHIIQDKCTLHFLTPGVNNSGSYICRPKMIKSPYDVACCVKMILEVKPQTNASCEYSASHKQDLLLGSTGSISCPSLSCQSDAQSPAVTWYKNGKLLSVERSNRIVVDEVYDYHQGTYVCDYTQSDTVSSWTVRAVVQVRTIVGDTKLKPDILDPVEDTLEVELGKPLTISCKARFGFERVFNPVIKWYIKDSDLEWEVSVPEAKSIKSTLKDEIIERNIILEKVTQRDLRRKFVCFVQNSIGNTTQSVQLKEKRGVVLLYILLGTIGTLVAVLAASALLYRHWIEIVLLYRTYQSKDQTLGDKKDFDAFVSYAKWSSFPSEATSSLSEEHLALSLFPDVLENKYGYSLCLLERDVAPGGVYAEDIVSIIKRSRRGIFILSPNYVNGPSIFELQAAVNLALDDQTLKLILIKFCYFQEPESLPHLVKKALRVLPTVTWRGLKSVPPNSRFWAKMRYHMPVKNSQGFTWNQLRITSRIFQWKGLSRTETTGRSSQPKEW
# assay-info: cell-based or functional assay
Below: a set of entries, each annotated with reported HEK-Blue IL-18R reporter EC50.
reported-endpoint: HEK-Blue IL-18R reporter EC50 (pM)

INSERT INTO results (binder, unit_abbreviation, val) VALUES
  ('SEQ ID NO 62 (ligand) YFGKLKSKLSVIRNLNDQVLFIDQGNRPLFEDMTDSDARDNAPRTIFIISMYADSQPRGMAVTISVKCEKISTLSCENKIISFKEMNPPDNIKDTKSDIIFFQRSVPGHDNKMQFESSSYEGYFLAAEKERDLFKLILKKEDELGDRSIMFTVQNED', 'pM', 0.17),
  ('C167 (ligand) YFGKLESKLSIIRNLNDQVLFIDQGNRPLFEDMTDSDARDNAPRTIFIISMYKDSQPRGMAVTISVKCEKISTLSAENKIISFKEMNPPDNIKDTKSDIIFFQRIVPGHDNKMQFESSSYEGYFLAAEKERDLFKLILKKEDELGDRSIMFTVQNED', 'pM', 5.37);
